The reader will find reported melting point values listed item by item below.

Example compounds with recorded melting point:
* COc1cc2c(cc1OC)C(C#N)N(C(=O)c1ccccc1)CC2 (configuration not stated) | 214 to 217 °C
* Cc1ccc(C(c2ccc(C)o2)c2cc(Br)cc(C)c2O)o1 | 198 to 199 °C
* N#CCC(N)=S | 113 to 119 °C
* CC(C)C1=C(O)C(=O)C2=C(C1=O)C(O)C(O)C1C(C)(C)CCCC21C (configuration not stated) | 203 to 205 °C
* NC(=O)NC=O | 170 to 173 °C
* Cc1ccccc1CP(=O)(O)O | 195 to 196 °C
* c1ccc(-c2nc3ccccc3nc2-c2ccc3ccccc3c2)cc1 | 121 to 122 °C
* Cc1[nH]nc(C(F)(F)C(F)(F)C(F)(F)F)c1[N+](=O)[O-] | 97 to 98 °C
* N#Cc1c(NC(=O)c2ccccc2Cl)sc2c1CCCC2 | 161 to 162 °C
* Cc1csc2sc(C=O)c(C)c12 | 147 to 149 °C

Name the recorded melting point for COC(=O)C(CCSC)NC(=O)c1ccc(C(F)(F)F)cc1 (configuration not stated) .
94 to 96 °C

Name the recorded melting point for `CNc1ccc(C#N)cc1N` .
139 to 142 °C

// data source = a melting point compilation (Tetko et al.)
